Data provenance: ChEMBL document CHEMBL4765399

System tested: Nuclear receptor subfamily 4immunitygroup A member 1 (Homo sapiens, UniProt P22736)
Sequence (P22736 whole entry, the tested form may be a part): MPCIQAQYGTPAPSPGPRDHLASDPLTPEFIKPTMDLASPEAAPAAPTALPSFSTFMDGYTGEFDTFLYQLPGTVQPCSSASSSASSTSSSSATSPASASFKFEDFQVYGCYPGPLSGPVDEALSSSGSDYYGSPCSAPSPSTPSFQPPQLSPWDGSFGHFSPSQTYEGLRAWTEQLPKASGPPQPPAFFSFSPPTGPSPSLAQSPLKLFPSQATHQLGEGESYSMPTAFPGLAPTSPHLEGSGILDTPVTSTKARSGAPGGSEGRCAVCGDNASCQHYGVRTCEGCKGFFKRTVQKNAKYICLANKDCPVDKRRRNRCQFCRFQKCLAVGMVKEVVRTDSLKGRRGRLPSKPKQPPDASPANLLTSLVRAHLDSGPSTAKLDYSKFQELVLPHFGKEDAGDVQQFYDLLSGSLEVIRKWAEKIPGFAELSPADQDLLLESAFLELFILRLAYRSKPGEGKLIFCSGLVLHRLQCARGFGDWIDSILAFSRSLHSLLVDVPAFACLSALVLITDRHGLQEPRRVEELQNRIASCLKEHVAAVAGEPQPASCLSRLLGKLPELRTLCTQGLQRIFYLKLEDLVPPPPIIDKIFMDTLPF
Experiment: Binding affinity to Nur77 ligand binding domain (unknown origin) assessed as dissociation constant by fluorescence titration based analysis
Readout: Kd (nM)
Entry rule: numbers only, all in nM.

What Kd value was documented for this compound, COc1cccc2c(Nc3ccc4[nH]c(C(=O)N/N=C/c5ccc(SC)cc5)cc4c3)cc(C)nc12 ?
1340

====

Test system: L02
Experiment: Cytotoxicity against human L02 cells assessed as reduction in cell viability incubated for 48 hrs by MTT assay
Format: cell-based
Experimental conditions: L02, 48 h
Readout: pIC50
Units for pIC50: none; it is -log10 of a concentration expressed in mol/L.

Consider the worked cases shown below.
Field request: pIC50 | item: COc1ccccc1/C=N/NC(=O)c1cc2cc(Nc3cc(C)nc4c(OC)cccc34)ccc2[nH]1
5.29

Follow-up item: COc1ccc(/C=N/NC(=O)c2cc3cc(Nc4cc(C)nc5c(OC)cccc45)ccc3[nH]2)c2ccccc12
5.04

How about COc1cccc2c(Nc3ccc4[nH]c(C(=O)N/N=C/c5cc(C(C)(C)C)c(O)c(C(C)(C)C)c5)cc4c3)cc(C)nc12 ?
5.45

Continuing:
Param item = COc1cccc2c(Nc3ccc4[nH]c(C(=O)N/N=C/c5ccc(C#N)cc5)cc4c3)cc(C)nc12 ; retrieve measured pIC50.
5.55
